FYI, the data here is from PubChem BioAssay.

assay-explanation: S. cerevisiae RM11-1a growth modifiers, primary screen, strain RM11-1a, OD600, basal, 24 h (AID 1177);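 also: cultures grown under basal conditions with no added stressor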
run-conditions: OD600, 24 h, higher = more signal, called active from +8 up or from −8 down
# if value of z-score reaches 0.09, tag 1 (yes); if it stays below, tag 0 (no)

compound	qualitative-label
CC(=O)NCCCC[C@@H]1NC(=O)[C@@H]2C[C@H](C(=O)O)[C@H](c3cccc(OCCO)c3)N2C1=O	1 (yes)
COc1ccc(C(=O)Nc2cccc(CN3C(=O)[C@@]4(O[C@@H](CCO)[C@H]([Si](C)(C)c5ccc(OC)cc5)[C@H]4C)c4ccccc43)c2)cc1	1 (yes)
COc1ccc([Si](C)(C)[C@@H]2[C@@H](CC(=O)N3CCC[C@H]3CO)O[C@]3(C(=O)N(Cc4ccc(I)cc4)c4ccccc43)[C@H]2C)cc1	0 (no)

Exercise: Exam item: decide whether the reported z-score for CCCCCN1CC=CC23O[C@@H]4/C=C\CCC(C)OC(=O)C4[C@H]2C(=O)N(CCCO)[C@@H]3C1=O (stereo partly drawn) is at least 0.09.
Solution: 0 (no)

###

System: Human papillomavirus type 1a protein E7 (residues 44-93)
assay-explanation: HPV1a E7 fragment binders on microarrays, primary screen, biochemical, small-molecule microarray, residues 44-93, 635 nm fluorescence (AID 1108);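 also: E7 fragment applied at 1 µg/mL in TBST for 1 h at 4 C; score combines spot fluorescence with its signal to noise ratio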
run-conditions: small-molecule microarray binding, fluorescence 635 nm; higher = more signal
assay-endpoint: composite z-score
One number for each entry.

compound	endpoint-value
[N-]=[N+]=NCc1ccccc1C[C@@]1(C(=O)NCc2ccccc2)N=C(c2ccc(OCCCO)cc2)O[C@@H]1c1ccccc1	0.212
O=c1n(-c2ccccc2)c(=O)n2n1CC(COc1ccccc1)=C1[C@@H](CCc3ccccc3)OB(O)C[C@@H]12	0.398
COc1ccc(C#Cc2ccc3c(c2)[C@]2(C(=O)N3)[C@H](c3ccc(O)cc3)N3[C@H](c4ccccc4)[C@H](c4ccccc4)OC(=O)[C@H]3[C@@H]2C(=O)N2CCN(c3ncccn3)CC2)cc1	0.778
C=CCC(OC(C)=O)[C@@H]1[C@@H](N(Cc2cccc3ccccc23)C(=O)c2cccc3ccccc23)c2cc(OCCCO)ccc2N1C(=O)Cc1ccc(OC)cc1 (stereo not given in full)	-0.37
COC(=O)c1c(CC[C@@H](CO)NC(=O)Nc2ccc(OC)cc2)oc(C(=O)Cc2ccccc2)c1C(=O)OC	0.316
CO[C@H]1O[C@H](CO)[C@@H](OC(=O)Nc2ccccc2)[C@H](OC(=O)Nc2ccccc2-c2ccccc2)[C@H]1OC(=O)Nc1ccccc1-c1ccccc1	1.36

Each of the following entries comes with a recorded value; kindly state composite z-score for each.
1. O=C(O)[C@H]1C[C@H]2C(=O)N[C@@H](Cc3ccccc3)C(=O)N2[C@H]1c1ccc(O)cc1
2. O=C1c2ccccc2[C@@]2(Cc3ccccc3N(CC(F)(F)F)C2=O)[C@H](c2ccc(CO)cc2)N1Cc1ccccc1C(F)(F)F
3. CN(C)CCCC[C@@H]1NC(=O)[C@@H]2C[C@H](C(=O)NCCCCCNC(=O)CS)[C@H](c3cccc(OCCO)c3)N2C1=O
4. CC(C)(C)OC(=O)CC[C@@]12N=C(c3ccc(OCCCO)cc3)O[C@@H]1c1ccccc1CN(Cc1ccccc1)C2=O

Solution:
-0.067
-0.713
-0.0825
0.33

Each of the following entries comes with a recorded value; kindly state composite z-score for each.
1. COC(=O)[C@@]1(CCC(=O)OC(C)(C)C)COC(c2ccc(OCCCO)cc2)=N1
2. CC(C)N1C(=O)c2ccccc2[C@@H](C(=O)NCc2ccccc2)[C@@H]1c1ccc(CO)cc1

Solution:
-1.42
0.319

Each of the following entries comes with a recorded value; kindly state composite z-score for each.
1. COc1ccc(/C=C/C(=O)c2cccc(OCC(=O)OC(C)(C)C)c2)cc1
2. O=C(NO)[C@]1(Cc2ccccc2)N=C(c2ccc(OCCCO)cc2)O[C@@H]1c1ccccc1
3. CC(C)(C)OC(=O)CC[C@@]1(C(=O)NCc2ccccc2)N=C(c2ccc(OCCCO)cc2)O[C@@H]1c1ccccc1CN=[N+]=[N-]

Solution:
[0.268, -0.281, -0.179]

###

assay-explanation: esBAF inhibition via Bmi1 de-repression, confirmation, cell-based, RT-qPCR, mouse ESC, single point, cherry-pick (AID 743180);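 also: higher fold means more Bmi1 de-repression and stronger esBAF inhibition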
run-conditions: mouse ESC E14, Bmi1 mRNA qPCR fold; Bmi1 de-repression; at 7 µM; stronger effect = higher value
This is one part of the list.
assay-endpoint: fold change
Answers are plain numbers.

Worked cases, answers included:
> print(dat)
                            item.smiles  endpoint.value
1    Cc1cc(Cl)nc(NC(=O)Nc2cccc(Cl)c2)n1            1.61
2   CCS(=O)(=O)n1nc(-c2ccc(OC)cc2)nc1SC            1.24
3             CN(C)c1ccc(CSc2ccccc2)cc1            1.01
4  COc1ccc(N=Cc2c(O)[nH]c3ccccc23)cc1OC            1.45
5    COc1ccc(/C=N/OCc2ccccc2C#N)c(OC)c1            1.34

Exercise: Which fold change reading was recorded for the compound "COc1ccc(Nc2ncnc3sc(C)cc23)cc1" ?
Solution: 1.3

###

target-system: Left-right determination factor 2 (Homo sapiens)
assay-explanation: LEFTY2 binders on small-molecule microarrays, primary screen, biochemical, small-molecule microarray, 635 nm fluorescence scan (AID 1110)
run-conditions: LEFTY2 binding, higher = more signal
# if value of composite z-score reaches 0.4, tag Condition met; if it stays below, tag Condition not met

See these solved cases before continuing.
compound	qualitative-label
C=CCC(OC(C)=O)[C@@H]1[C@@H](N(Cc2cccc3ccccc23)C(=O)c2cccc3ccccc23)c2cc(OCCCO)ccc2N1C(=O)Cc1ccc(OC)cc1 (stereo partly specified)	Condition not met
C=C(COC)C(=O)CC[C@H](OC(=O)c1ccccc1-c1ccccc1C(=O)O)c1ccccc1OCCO	Condition not met
COCCOC(=O)N1C(=O)[C@@]2(c3cc(C#CC4(O)CCCCCC4)ccc31)[C@H](c1ccccc1OCCO)N1[C@H](c3ccccc3)[C@H](c3ccccc3)OC(=O)[C@H]1[C@@H]2C(=O)Nc1nc2ccccc2s1	Condition met
Cc1ccc(S[C@]2(C(=O)NCCN3CCOCC3)CC(=O)N(Cc3cc(C(F)(F)F)cc(C(F)(F)F)c3)[C@@H]2c2ccc(CO)cc2)cc1	Condition not met
COc1ccc([Si](C)(C)[C@H]2[C@H](CC(=O)N(CCO)Cc3ccccc3)O[C@@]3(C(=O)N(Cc4ccc(N5CCOC5=O)cc4)c4ccccc43)[C@@H]2C)cc1	Condition not met

Let us examine a further case.
Exercise: Exam item: decide whether the reported composite z-score for "COC(=O)C(CC#Cc1ccc2c(c1)[C@]1(C(=O)N2)[C@H](c2ccccc2OCCO)N2[C@H](c3ccccc3)[C@H](c3ccccc3)OC(=O)[C@H]2[C@@H]1C(=O)N1CCCCCCC1)C(=O)OC" is at least 0.4.
Solution: Condition met

###

Assignment: determine reported composite z-score for the given compounds.
target-system: Pro-neuregulin-1, membrane-bound isoform (Homo sapiens) (UniProt Q02297)
Sequence (Q02297 whole entry, looked up, canonical isoform): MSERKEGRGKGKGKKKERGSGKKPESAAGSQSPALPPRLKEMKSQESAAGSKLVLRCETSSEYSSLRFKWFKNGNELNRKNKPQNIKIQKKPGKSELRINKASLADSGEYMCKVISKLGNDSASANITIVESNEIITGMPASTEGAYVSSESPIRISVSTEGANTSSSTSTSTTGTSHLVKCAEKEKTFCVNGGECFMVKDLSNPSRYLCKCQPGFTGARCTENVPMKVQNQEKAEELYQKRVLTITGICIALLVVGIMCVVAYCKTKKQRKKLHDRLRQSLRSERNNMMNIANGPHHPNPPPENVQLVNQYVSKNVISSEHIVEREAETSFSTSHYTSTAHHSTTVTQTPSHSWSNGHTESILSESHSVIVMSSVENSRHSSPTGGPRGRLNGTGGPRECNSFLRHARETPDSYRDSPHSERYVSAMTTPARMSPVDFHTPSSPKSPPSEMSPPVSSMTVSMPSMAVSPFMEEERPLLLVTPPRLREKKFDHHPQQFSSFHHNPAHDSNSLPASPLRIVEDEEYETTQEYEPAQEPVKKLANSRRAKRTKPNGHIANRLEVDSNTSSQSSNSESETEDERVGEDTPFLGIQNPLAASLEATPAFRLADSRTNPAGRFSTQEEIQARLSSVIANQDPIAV
assay-explanation: NRG1 binders on small-molecule microarrays, primary screen, psychiatric disease protein project, biochemical, small-molecule microarray, fluorescence 635/667 (AID 1075);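 also: score combines 667 nm spot fluorescence with signal to noise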
run-conditions: NRG1 binding, 635 nm fluorescence, higher = more signal
Answers are plain numbers.

Each of the following entries comes with a recorded value; kindly state composite z-score for each.
1. C[C@@H](OCc1ccccc1)C1NC(=O)[C@@]23C(=O)N[C@@H](Cc4ccccc4)C2[C@H](C)[C@@]2(C)O[C@H]2C3/C=C/C/C=C\CNC(=O)[C@@H]2CCCN2C1=O (some centres not stated)
2. CC(C)C(=C=CC[C@H](O)c1ccc(OCCO)cc1)C[C@H](O)COCc1ccccc1
3. CC(C)(C)OC(=O)CC[C@@]1(C(=O)NCc2ccccc2)N=C(c2ccc(OCCCO)cc2)O[C@@H]1c1ccccc1CN=[N+]=[N-]
4. C[N+](C)(C)CCCC[C@@H]1NC(=O)[C@H]2C[C@@H](C(=O)NCCCCCN)[C@@H](c3cccc(OCCO)c3)N2C1=O
5. [N-]=[N+]=NCc1ccccc1C[C@]1(C(=O)NCc2ccccc2)N=C(c2ccc(OCCCO)cc2)O[C@H]1c1ccccc1
6. C=C(C(=O)CC[C@H](OC(C)=O)c1ccc(CO)o1)C(C)C

Solution:
1: -0.52; 2: 0.639; 3: 1.16; 4: 2.07; 5: 0.994; 6: -0.116

Exercise: Which composite z-score reading was recorded for the compound "[N-]=[N+]=Nc1ccccc1[C@H]1OC(c2ccc(OCCCO)cc2)=N[C@@]1(Cc1ccccc1)C(N)=O" ?
Solution: 1.14

###

assay-explanation: COS7 lysate on small-molecule microarray, probe aHis, 635 nm (AID 1123);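 also: z-score combines 667nm fluorescence intensity with signal-to-noise per printed compound spot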
run-conditions: COS7 cell lysate, fluorescence, higher = more signal
assay-endpoint: composite z-score
Give bare numbers.

> print(dat)
                                item.smiles  endpoint.value
1  COCCCNC(=O)[C@@]1(C)c2ccccc2C(=O)N(Cc2cc(F)cc(C(F)(F)F)c2)[C@H]1c1ccc(CO)cc1            2.01
2  CC(=O)NCCCC[C@@H]1NC(=O)[C@@H]2C[C@H](C(=O)O)[C@H](c3cccc(OCCO)c3)N2C1=O           0.348
3  Cc1ccc(S[C@]2(C(=O)NC3CC3)CC(=O)N(Cc3ccccc3C(F)(F)F)[C@@H]2c2ccc(CO)cc2I)cc1           0.898
4  C=CC[C@@H](OC(=O)Nc1ccc(SC)cc1)c1ccc(OCCO)cc1            1.99
5  O=C(NCc1ccccc1)[C@@H]1c2ccccc2C(=O)N(Cc2ccccc2Cl)[C@H]1c1ccc(CO)cc1            2.36
6  CCOC(=O)C[C@H]1[C@H](OC(=O)c2ccc(C(=O)c3ccccc3)cc2)[C@@H](NC(=O)Cc2ccc(OC)cc2)c2cc(OCCCO)ccc2N1C(=O)Cc1ccc(OC)cc1           0.954

Now let's try a different one.
Exercise: Which composite z-score reading was recorded for the compound "CN(C)CCCC[C@@H]1NC(=O)[C@@H]2C[C@H](C(=O)NCCCCCNC(=O)CS)[C@H](c3cccc(OCCO)c3)N2C1=O" ?
Solution: 0.356
